tested-on: T1, TIGIT (UniProt Q495A1 22-141, limits assumed)
T1 construct: also called T cell immunoreceptor with Ig and ITIM domains; hTIGIT
T1 sequence (looked up): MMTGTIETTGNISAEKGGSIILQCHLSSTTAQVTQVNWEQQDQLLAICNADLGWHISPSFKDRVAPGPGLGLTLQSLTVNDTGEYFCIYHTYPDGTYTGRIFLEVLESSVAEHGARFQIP
assay-text: SPR (Carterra)
Listing: koff of selected binders
Give the quantity in s⁻¹, number only.

INSERT INTO results (binder, readout_number) VALUES
  ('TIGIT-211-35 (antibody, V domains shown) VH: EVQLLESGGGLVQPGGSLRLSCAASGFTFNAYPMTWVRQAPGKGLEWVSAITGSGGSTYYADSVKGRFTISRDNSKNTLYLQMNSLRAEDTAVYYCARDGSYSSSWYGYWGQGTLVTVSS VL: DIQMTQSPSSLSASVGDRVTITCSGNKLGDKYASWYQQKPGKAPKLLIYRTSWLQSGVPSRFSGSGSGTDFTLTISSLQPEDFATYYCVARAVRGNPHVLFGQGTKVEIK', 0.0406);

Below: the item to evaluate.
koff for TIGIT-211-30 (antibody, V domains shown) VH: EVQLLESGGGLVQPGGSLRLSCAASGFTFKSYGMHWVRQAPGKGLEWVSAISGSGGGTSYADSVKGRFTISRDNSKNTLYLQMNSLRAEDTAVYYCARAGQWLGDFDYWGQGTLVTVSS VL: DIQMTQSPSSLSASVGDRVTITCRASQPIGPDLLWYQQKPGKAPKLLIYRKSNRPSGVPSRFSGSGSGTDFTLTISSLQPEDFATYYCQQSYSTPYTFGQGTKVEIK is 0.0681
